Tested on: ATP;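 note: ATP exposure 15 min at 22 °C before imaging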
Assay: switch fluorescence ratio, 500 uM ATP over buffer (Cy3 cluster intensity, sum of 5 cycles each) (fold (ratio)); higher = stronger signal-on switching upon ATP binding; sequences stand for … in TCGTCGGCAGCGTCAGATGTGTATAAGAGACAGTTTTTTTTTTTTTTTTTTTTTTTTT…TC
Conditions: aptamer strand: ATP DNA aptamer (quencher-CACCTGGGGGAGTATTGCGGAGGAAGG + anchor), 100 nM annealed; ATP concentration: 500 uM
METRIC: switch fluorescence ratio
Note: the reply should be a number with no unit written.

CTGAAAAATT; 1.01
ACGTTAAGAT; 1.29

Please give the measured switch fluorescence ratio for this sequence: TCCGGCTGGT
0.976

Subsequent entry: CAAGGCTGGG
1.02

Subsequent entry: TAATGTGGTA
0.979

Subsequent entry: TGCGTGCTGG
0.985

Subsequent entry: GCTGGTGCTT
0.974

----------
Below: a set of entries, each annotated with reported switch fluorescence ratio.
Test system: ATP;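 note: ATP exposure 15 min at 22 °C before imaging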
Test: switch fluorescence ratio, 500 uM ATP over buffer (Cy3 cluster intensity, sum of 5 cycles each) (fold (ratio)); higher = stronger signal-on switching upon ATP binding; sequences stand for … in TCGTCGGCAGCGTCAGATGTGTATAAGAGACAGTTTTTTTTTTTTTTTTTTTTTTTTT…TC
Conditions: aptamer strand: ATP DNA aptamer (quencher-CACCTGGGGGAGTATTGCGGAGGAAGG + anchor), 100 nM annealed; ATP concentration: 500 uM
Note: the reply should be a number with no unit written.

TCAGTTTTAT; 0.973

Hello, I am looking for reported switch fluorescence ratio with ATP for TCATAGCGCC . Could you help?
1.01

Subsequent entry: GTTTATAAAC
0.973

Subsequent entry: CGGGTAATCG
1.01

Subsequent entry: GTTGGGATGG
0.991

Subsequent entry: GAGTGTCGCC
0.99

Subsequent entry: AGTAGATGGC
1.02

Subsequent entry: CATAATGGTG
1.02

Subsequent entry: AGTATGGTTG
1

Subsequent entry: TGAGATTTTG
0.983

Subsequent entry: TAGGGGTCCA
0.987

Subsequent entry: GCAGACATAG
0.983

Subsequent entry: GGGTGAGGGG
1.01

Subsequent entry: GGCCTAGTTT
0.98

----------
System: ATP;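 note: ATP exposure 15 min at 22 °C before imaging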
Experiment: switch fluorescence ratio, 500 uM ATP over buffer (Cy3 cluster intensity, sum of 5 cycles each) (fold (ratio)); higher = stronger signal-on switching upon ATP binding; sequences stand for … in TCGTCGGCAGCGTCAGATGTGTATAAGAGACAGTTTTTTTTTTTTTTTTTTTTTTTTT…TC
Conditions: aptamer strand: ATP DNA aptamer (quencher-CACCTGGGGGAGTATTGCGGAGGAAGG + anchor), 100 nM annealed; ATP concentration: 500 uM
METRIC: switch fluorescence ratio
Note: the reply should be a number with no unit written.

TGTTCGGTCG; 1
TAGTACTATC; 0.993
TGCCGGTTTT; 1.01

Please give the measured switch fluorescence ratio for this sequence: GGATTAATCT
0.998

Subsequent entry: TTTAACAGGT
1.03

Subsequent entry: TGGTTAGTGT
1.01

----------
Test system: ATP;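 note: ATP exposure 15 min at 22 °C before imaging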
Experiment: switch fluorescence ratio, 500 uM ATP over buffer (Cy3 cluster intensity, sum of 5 cycles each) (fold (ratio)); higher = stronger signal-on switching upon ATP binding; sequences stand for … in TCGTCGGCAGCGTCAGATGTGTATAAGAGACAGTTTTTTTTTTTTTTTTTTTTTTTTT…TC
Settings: aptamer strand: ATP DNA aptamer (quencher-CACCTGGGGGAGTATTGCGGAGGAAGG + anchor), 100 nM annealed; ATP concentration: 500 uM
Label scheme for switch fluorescence ratio: lower than 1 is F, 1 and above is T.

Past entries and their recorded results:
AGTTGGGTGG; T
AGTGTGGGGA; T

Attention now turns to another entry.
Assess whether reported switch fluorescence ratio for AGTTGGTGTT sits at 1 or higher.
F

Source: the supplement of paper PMC10126150
